Hello, the source for this data is paper PMC5540273, in case you need it.

# Test system: ITK;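 further: KINOMEscan kinase panel screen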
# stated.conditions: concentration: 1 μM, replicates: in singlicate; n = 1
quantity: %Inh (%)
One number for each entry, in %.

Examples from the recorded data:
>>> numeric_readout("Nc1nc(-c2ccccn2)c(-c2ccnc3ccccc23)s1")
5
>>> numeric_readout("Cn1ccc2ncnc(Nc3ccc(Oc4cccc(Cl)c4)c(Cl)c3)c21")
23
>>> numeric_readout("Cc1cccc(-c2nc(Nc3ccc4[nH]nnc4c3)c3ccccc3n2)n1")
0

Lab note: each molecule below needs its %Inh filled in.
1. CC(C)N1CCC(n2cnc(-c3ccc(F)cc3)c2-c2ccnc(N)n2)CC1
2. CCCc1ccc(S(=O)(=O)NC2CCN(c3ccnc(Nc4ccc(OC)cc4)n3)C2)cc1 (centres unmarked)
3. COc1ccc(-c2oc3ncnc(N)c3c2-c2ccc(OC)cc2)cc1
4. Nc1nc(-c2ccc3c(N)n[nH]c3c2)cc(N2CCCCC2)n1
5. COc1cc2c(Nc3cccc(NC(=O)c4ccccc4)c3)ncnc2cc1OCCCN1CCOCC1

Ans:
1: 0; 2: 14; 3: 19; 4: 18; 5: 9

Lab note: each molecule below needs its %Inh filled in.
1. COc1ccc(NC(=O)c2ccc(-c3cc(-c4nnc(C)o4)ccc3C)cc2)cc1
2. CS(=O)(=O)CCNCc1nc(-c2ccc3ncnc(Nc4ccc(OCc5cccc(F)c5)c(Cl)c4)c3c2)cs1.Cl
3. Cc1cc(N2CCC(NS(=O)(=O)c3ccc(F)cc3)CC2)nc(Nc2cccc(C#N)c2)n1.O=C(O)C(F)(F)F

Ans:
6
0
1
